biological target: T1, commercial, recombinant extracellular domain of human BAFF-R (human, UniProt Q96RJ3 1-78); assay: Biacore analysis; antibody as loading sample, recombinant human BAFF-R ECD as sample
T1 construct: extracellular domain
Kd overview
Field format: number, assumed nM, no unit text.

Known Kd results, listed for orientation:
>  <BINDER>
humanized C90 variant HC3 + LC1 (antibody, V domains shown, also called Humanized HC3 + LC1; Hu90 HC-3 with Hu90 LC-1) VH: EVQLQESGPGLVKPSETLSLTCSVSGDSITSGYWNWIRQPPGKGLEYIGYISYSGSTYYNPSLKSRVTISRDTSKNQYSLRLSSVTAADTALYYCASPNYPFYAMDYWGQGTRVTVSS VL: EIVLTQSPATLSLSPGERATLSCRASESVDNYGISFLNWFQQKPGQAPRLLIYAASNRATGIPARFSGSGSGTDFTLTISSLEPEDFAVYYCQQSKEVPWTFGGGTKVEIKR

>  <Kd [nM]>
3.8

$$$$
>  <BINDER>
humanized C90 variant HC2 + LC2 (antibody, V domains shown, also called Hu90 HC-2 with Hu90 LC-2) VH: EVQLQESGPGLVKPSQTLSLTCTVSGDSITSGYWNWIRQHPGKGLEYIGYISYSGSTYYNPSLKSRVTISRDTSKNQYSLKLSSVTAADTAVYYCASPNYPFYAMDYWGQGTLVTVSS VL: DIVLTQSPATLSLSPGERATLSCRASESVDNYGISFMNWFQQKPGQAPRLLIYAASNRATGIPARFSGSGSGTDFTLTISSLEPEDFAVYYCQQSKEVPWTFGGGTKVEIKR

>  <Kd [nM]>
3.6

$$$$

Pending binder:
Measured Kd, humanized C90 variant HC3 + LC3 (antibody, V domains shown, also called Humanized HC3 + LC3; Hu90 HC-3 with Hu90 LC-3) VH: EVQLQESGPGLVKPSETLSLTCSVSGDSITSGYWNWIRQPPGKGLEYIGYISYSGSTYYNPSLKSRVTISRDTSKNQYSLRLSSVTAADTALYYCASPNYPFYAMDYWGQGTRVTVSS VL: DIVMTQSPSSLSASVGDRVTITCRASESVDNYGISFMNWFQQKPGKAPKLLIYAASNLGSGVPSRFSGSGSGTDFTLTISSLQPEDFATYYCQQSKEVPWTFGQGTKVEIKR : 3.4
